- assayed.system: T1, HLA-A*02:01 (human)
- T1 construct: MHC monomers first loaded with a UV-sensitive peptide (not identified) that is cleaved by UV light and exchanged for the test peptide; captured on streptavidin plates, detected with anti-β2m; also called peptide-receptive MHC molecules; MHC class I
- test.details: UV-ligand exchange + anti-b2m ELISA; peptide exchange yield grade (+ >=10%, ++ >=20%, +++ >=50, ++++ >=75%)
assay.metric: peptide exchange yield

Some binders with recorded peptide exchange yield:
binder="HIYDKAFITV (source gene FLT1) [HIYDKAFITV (SEQ ID NO: 101)]" reading="20 to 50%"
binder="VLFELSKTV (source gene ATP11A) [VLFELSKTV (SEQ ID NO: 6)]" reading="50 to 75%"
binder="GLDGIPFTV (source gene TRIP6) [GLDGIPFTV (SEQ ID NO: 73)]" reading="50 to 75%"
binder="TLAETLVNL (source gene ANKRD52) [TLAETLVNL (SEQ ID NO: 96)]" reading="50 to 75%"
binder="FLSQDIITV (source gene REN) [FLSQDIITV (SEQ ID NO: 4)]" reading="50 to 75%"
binder="YSLEKVFGI (source gene MAGED2) [YSLEKVFGI (SEQ ID NO: 72)]" reading="20 to 50%"

Prompt: Please give the measured peptide exchange yield for this binder: FMPEELPQL (source gene THNSL2) [FMPEELPQL (SEQ ID NO: 16)]
Completion: 20 to 50%

Prompt: Recorded peptide exchange yield of ILLQKPDSV (source gene RGS5) [ILLQKPDSV (SEQ ID NO: 9)] , please.
Completion: 20 to 50%

Prompt: Fill in: peptide exchange yield of ILWREVVTL (source gene HSF4) [ILWREVVTL (SEQ ID NO: 2)] is ___
Completion: 50 to 75%

Prompt: Could you share which peptide exchange yield value was measured for LLFDHLEPIEL (source gene RASGRP3) [LLFDHLEPIEL (SEQ ID NO: 112)] ?
Completion: 50 to 75%

Prompt: Item under review: VLLDTILQL (source gene HSF2BP) [VLLDTILQL (SEQ ID NO: 38)] . Reported peptide exchange yield?
Completion: 50 to 75%

Prompt: Endpoint output: peptide exchange yield of FLIKSINLV (source gene KBTBD3) [FLIKSINLV (SEQ ID NO: 75)] . Value?
Completion: 50 to 75%

Prompt: I have this binder here, LLDLHSYLL (source gene MARCH6) [LLDLHSYLL (SEQ ID NO: 110)] , and I need its recorded peptide exchange yield.
Completion: 20 to 50%

Prompt: Would you mind telling me what peptide exchange yield value was observed for ELNNQNFYL (source gene CIT) [ELNNQNFYL (SEQ ID NO: 34)] ?
Completion: 50 to 75%

Prompt: Any idea what its peptide exchange yield is? The binder is YLYPNLTRL (source gene SLC6A13) [YLYPNLTRL (SEQ ID NO: 5)]
Completion: 20 to 50%

Prompt: I have this binder here, SLLPALPKL (source gene LRP2) [SLLPALPKL (SEQ ID NO: 81)] , and I need its recorded peptide exchange yield.
Completion: 20 to 50%

Prompt: # query: peptide exchange yield of entry GLFHKQVTV (source gene PDZD2) [GLFHKQVTV (SEQ ID NO: 74)]
Completion: 50 to 75%

Reference for the values: patent US20160287687A1
